Tested on: CCRF-CEM
Assay: Cytotoxicity against human CEM cells after 72 hrs by MTT assay
Type: functional, cell-based
Details: ccrf-cem
reported-property: pIC50
Just the number, please; pIC50 means minus log10 of the concentration in mol/L.

stdin: // lookup pIC50 for CCCCCCCCOC(c1ccc([N+](=O)[O-])cc1)c1cn([C@@H]2O[C@H](CO)[C@@H](O)[C@H]2O)c(=O)[nH]c1=O (stereo in doubt; (-)-8h)
stdout: 4.77

stdin: // lookup pIC50 for CCCCCCCOC(c1ccc([N+](=O)[O-])cc1)c1cn([C@@H]2O[C@H](CO)[C@@H](O)[C@H]2O)c(=O)[nH]c1=O (stereo in doubt; (+)7g)
stdout: 4.89

stdin: // lookup pIC50 for CCCCCCCOC(c1ccc([N+](=O)[O-])cc1)c1cn([C@@H]2O[C@H](CO)[C@@H](O)[C@H]2O)c(=O)[nH]c1=O (stereo in doubt; (-)-8g)
stdout: 4.54

stdin: // lookup pIC50 for CCCCCCCCCOC(c1ccc([N+](=O)[O-])cc1)c1cn([C@@H]2O[C@H](CO)[C@@H](O)[C@H]2O)c(=O)[nH]c1=O (single isomer, unassigned; (-))
stdout: 5.00

stdin: // lookup pIC50 for CCCCCCOC(c1ccc([N+](=O)[O-])cc1)c1cn([C@@H]2O[C@H](CO)[C@@H](O)[C@H]2O)c(=O)[nH]c1=O (single isomer, unassigned; (-))
stdout: 4.34

* * *

Give IC50 for every item shown.
System: K562
Experiment: Cytotoxicity against human K562 cells after 72 hrs by MTT assay
Format: functional, cell-based
Settings: k562
Express the result in µM but write the number alone.

stdin: // lookup IC50 for CCCCCCCCOC(c1ccc([N+](=O)[O-])cc1)c1cn([C@@H]2O[C@H](CO)[C@@H](O)[C@H]2O)c(=O)[nH]c1=O (stereo in doubt; (-)-8h)
stdout: 24.7

stdin: // lookup IC50 for CCCCCCCCCOC(c1ccc([N+](=O)[O-])cc1)c1cn([C@@H]2O[C@H](CO)[C@@H](O)[C@H]2O)c(=O)[nH]c1=O (single isomer, unassigned; (-))
stdout: 13

stdin: // lookup IC50 for CCCCCCCOC(c1ccc([N+](=O)[O-])cc1)c1cn([C@@H]2O[C@H](CO)[C@@H](O)[C@H]2O)c(=O)[nH]c1=O (stereo in doubt; (-)-8g)
stdout: 36.7

stdin: // lookup IC50 for CCCCCCOC(c1ccc([N+](=O)[O-])cc1)c1cn([C@@H]2O[C@H](CO)[C@@H](O)[C@H]2O)c(=O)[nH]c1=O (single isomer, unassigned; (-))
stdout: 64.5

* * *

Give IC50 for every item shown.
Experiment: Cytotoxicity against human CEM-DNR-B cells after 72 hrs by MTT assay
Type: functional, cell-based
Express the result in µM but write the number alone.

stdin: // lookup IC50 for CCCCCCCCOC(c1ccc([N+](=O)[O-])cc1)c1cn([C@@H]2O[C@H](CO)[C@@H](O)[C@H]2O)c(=O)[nH]c1=O (stereo in doubt; (-)-8h)
stdout: 36.6

stdin: // lookup IC50 for CCCCCCCOC(c1ccc([N+](=O)[O-])cc1)c1cn([C@@H]2O[C@H](CO)[C@@H](O)[C@H]2O)c(=O)[nH]c1=O (stereo in doubt; (-)-8g)
stdout: 95.6

stdin: // lookup IC50 for CCCCCCOC(c1ccc([N+](=O)[O-])cc1)c1cn([C@@H]2O[C@H](CO)[C@@H](O)[C@H]2O)c(=O)[nH]c1=O (single isomer, unassigned; (-))
stdout: 146

stdin: // lookup IC50 for CCCCCCCCCOC(c1ccc([N+](=O)[O-])cc1)c1cn([C@@H]2O[C@H](CO)[C@@H](O)[C@H]2O)c(=O)[nH]c1=O (single isomer, unassigned; (-))
stdout: 33.8

Each recorded value in this set is attributed to ChEMBL document CHEMBL1240455.
